biological target: AURKC (Homo sapiens, UniProt Q9UQB9); construct: full-length wild-type AURKA, AURKB, and AURKC were obtained as plasmids cloned in frame with a C-terminal NanoLuc-fusion; host or cells: HEK293T; experiment: NanoBRET assay in HEK293T cells; format: cell-based; conditions: NanoBRET; n = 2; Figure 6B, bounds; read-out: affinity to intracellular AURKC
Sequence (Q9UQB9 whole entry, the tested form may be a part): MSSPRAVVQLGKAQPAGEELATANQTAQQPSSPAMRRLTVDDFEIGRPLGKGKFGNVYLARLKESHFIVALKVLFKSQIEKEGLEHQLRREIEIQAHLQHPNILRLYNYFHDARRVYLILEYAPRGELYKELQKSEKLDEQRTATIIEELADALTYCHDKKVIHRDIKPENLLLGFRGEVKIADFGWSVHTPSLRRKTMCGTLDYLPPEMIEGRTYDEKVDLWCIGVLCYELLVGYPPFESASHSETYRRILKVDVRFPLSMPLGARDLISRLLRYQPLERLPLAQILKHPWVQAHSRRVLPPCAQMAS
pIC50: −log10 of the molar value.
Exercise: for every item that follows, state its recorded pIC50.

Lab note: O=C(O)Cc1ccc(Nc2ncc(F)c(Nc3ccc(C(=O)Nc4ccccc4Cl)cc3)n2)cc1 [ERJ2-02] gave pIC50 of < 4.30

Looking up CCN1CCN(C(=O)Cc2ccc(Nc3ncc(F)c(Nc4ccc(C(=O)NCCN5CCCC5)cc4)n3)cc2)CC1 [ERJ2-16] , I found its pIC50 recorded as < 4.30

So for CCN1CCN(C(=O)Cc2ccc(Nc3ncc(F)c(Nc4ccc(C(=O)N5CCN(CC)CC5)cc4)n3)cc2)CC1 [ERJ2-13] , the logged pIC50 turned out to be < 4.30

For this compound ( CCN1CCN(C(=O)Cc2ccc(Nc3ncc(F)c(Nc4ccc(C(=O)O)cc4)n3)cc2)CC1 [ERJ2-12] ), measured pIC50 is < 4.30

Entry O=C(O)Cc1ccc(Nc2ncc(F)c(Nc3ccc(C(=O)Nc4ccccc4)cc3)n2)cc1 [ERJ2-10] , pIC50 reported as < 4.30

Measured pIC50, O=C(Nc1ccccc1Cl)c1ccc(Nc2nc(Nc3ccc(CC(=O)N4CCOCC4)cc3)ncc2F)cc1 [ERJ2-03] : < 4.30

* * *

target: PHKG2 (Homo sapiens, UniProt P15735); construct: purchased in-house thermal shift (DSF) kinase panel (SGC Frankfurt); Promega NanoBRET for AURKA/B/C; assay: Thermal shift assay; format: binding; settings: compound 10 µM; n = 3; read-out: ΔTm PHKG2
Sequence (P15735 6-293): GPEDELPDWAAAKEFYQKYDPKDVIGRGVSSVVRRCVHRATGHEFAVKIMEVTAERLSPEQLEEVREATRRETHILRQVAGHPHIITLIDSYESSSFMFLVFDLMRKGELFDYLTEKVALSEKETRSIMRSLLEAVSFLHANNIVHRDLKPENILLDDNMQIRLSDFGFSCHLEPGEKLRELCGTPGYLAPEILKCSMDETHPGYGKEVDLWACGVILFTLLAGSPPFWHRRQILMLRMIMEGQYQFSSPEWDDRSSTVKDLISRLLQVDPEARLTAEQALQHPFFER
So I've got a bunch of compounds here, and I need their ΔTm at 10 µM values.
Kindly answer with a numeric value in °C, unit omitted.

Noted for NC(=O)Cc1ccc(Nc2ncc(F)c(Nc3ccc(C(=O)Nc4ccccc4Cl)cc3)n2)cc1 [ERJ2-06] : its ΔTm at 10 µM reads 0.9

GET /value?item= CCN1CCN(C(=O)Cc2ccc(Nc3ncc(F)c(Nc4ccc(C(=O)Nc5ccccc5)cc4)n3)cc2)CC1 [ERJ2-11] &field=ΔTm at 10 µM returns 0.8

Reported ΔTm at 10 µM ( CCN1CCN(C(=O)Cc2ccc(Nc3ncc(F)c(Nc4ccc(C(=O)O)cc4)n3)cc2)CC1 [ERJ2-12] ) = 0.2

Lab note: O=C(Cc1ccc(Nc2ncc(F)c(Nc3ccc(C(=O)Nc4ccccc4Cl)cc3)n2)cc1)NCCN1CCOCC1 [ERJ2-04] gave ΔTm at 10 µM of 0.3

* * *

target: STK26 (Homo sapiens); construct: purchased in-house thermal shift (DSF) kinase panel (SGC Frankfurt); Promega NanoBRET for AURKA/B/C; experiment: Thermal shift assay; format: binding; details: compound 10 µM; n = 3; read-out: ΔTm STK26
Sequence (Q9P289 1-300): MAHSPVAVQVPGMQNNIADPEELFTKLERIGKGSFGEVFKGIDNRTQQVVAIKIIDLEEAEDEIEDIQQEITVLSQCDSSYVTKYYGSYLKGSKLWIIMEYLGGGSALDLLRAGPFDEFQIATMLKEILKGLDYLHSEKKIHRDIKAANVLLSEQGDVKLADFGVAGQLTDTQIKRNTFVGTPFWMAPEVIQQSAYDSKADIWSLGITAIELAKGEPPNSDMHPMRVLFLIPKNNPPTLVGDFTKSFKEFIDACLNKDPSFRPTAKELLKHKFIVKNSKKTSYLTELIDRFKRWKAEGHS
assay.metric: ΔTm at 10 µM (°C)
Write the answer as a number in °C, unit excluded.

// ΔTm at 10 µM value for CCN1CCN(C(=O)Cc2ccc(Nc3ncc(F)c(Nc4ccc(C(=O)Nc5ccccc5)cc4)n3)cc2)CC1 [ERJ2-11] : 1.3

Documented ΔTm at 10 µM of O=C(Cc1ccc(Nc2ncc(F)c(Nc3ccc(C(=O)Nc4ccccc4Cl)cc3)n2)cc1)NCCN1CCOCC1 [ERJ2-04] : 0.4

Entry under test: CCN1CCN(C(=O)Cc2ccc(Nc3ncc(F)c(Nc4ccc(C(=O)O)cc4)n3)cc2)CC1 [ERJ2-12] . Its ΔTm at 10 µM was -0.2

// sample NC(=O)Cc1ccc(Nc2ncc(F)c(Nc3ccc(C(=O)Nc4ccccc4Cl)cc3)n2)cc1 [ERJ2-06] , its ΔTm at 10 µM was 1.7

Where these numbers come from: paper PMC8776063
